# assayed_target: Arachidonate 5-lipoxygenase-activating protein (Homo sapiens) (UniProt P20292)
# Sequence (whole entry): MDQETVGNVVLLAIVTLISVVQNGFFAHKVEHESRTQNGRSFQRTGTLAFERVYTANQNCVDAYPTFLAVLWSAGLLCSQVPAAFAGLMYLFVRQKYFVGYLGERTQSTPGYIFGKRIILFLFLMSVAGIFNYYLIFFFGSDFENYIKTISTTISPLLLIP
# measurement_notes: Inhibition of FLAP in human neutrophils assessed as suppression of A23187-stimulated 5-LO product formation using arachidonic acid as substrate measured as residual activity at 1 uM preincubated for 15 mins followed by A23187/arachidonic acid addition after 10 mins RP-HPLC/UV analysis relative to control
property_name: Activity (%)
All answers are understood in %, so give the number only.

In the examples that follow, each entry is paired with its recorded Activity.
| compound | val |
| --- | --- |
| CC(C)Cc1ccc(C(C)c2nc3cc(OCc4ccc(Br)cc4)ccc3n2Cc2ccccc2C(F)(F)F)cc1 (stereo not drawn) | 108 |
| CC(C)c1ccc2c(c1)c(SC(C)(C)C)c(CC(C)(C)C(=O)O)n2Cc1ccc(Cl)cc1 | 2.7 |
| Cc1ccc(COc2ccc3c(c2)nc(C(C)c2ccc(CC(C)C)cc2)n3Cc2ccccc2C(F)(F)F)cc1 (stereo not drawn) | 92.6 |
| CC(C)Cc1ccc(C(C)c2nc3cc(OCc4ccccc4C(F)(F)F)ccc3n2Cc2ccccc2C(F)(F)F)cc1 (stereo not drawn) | 90.9 |
| CC(C)Cc1ccc(C(C)c2nc3cc(OCc4cccc(F)c4)ccc3n2Cc2ccccc2C(F)(F)F)cc1 (stereo not drawn) | 92 |
| C=CCOc1ccc2c(c1)nc(C(C)c1ccc(CC(C)C)cc1)n2Cc1ccccc1C(F)(F)F (stereo not drawn) | 7.5 |
| CC(C)Cc1ccc(C(C)c2nc3cc(OCc4ccccc4Cl)ccc3n2Cc2ccccc2C(F)(F)F)cc1 (stereo not drawn) | 92.2 |

Turning to the following compound.
IN: Name the recorded Activity for COC(=O)COc1ccc2c(c1)nc(C(C)c1ccc(CC(C)C)cc1)n2Cc1ccccc1C(F)(F)F (stereo not drawn) .
OUT: 1.9

* * *

# assayed_target: Arachidonate 5-lipoxygenase-activating protein (Homo sapiens, UniProt P20292)
# measurement_notes: Inhibition of FLAP in human monocytes assessed as suppression of A23187-stimulated 5-LO product formation preincubated for 15 mins followed by A23187 after 10 mins RP-HPLC/UV analysis
# Assay type: cell-based
property_name: pIC50
Scale: negative log10 of molar concentration, which is what pIC50 denotes.

IN: What value of pIC50 on Arachidonate 5-lipoxygenase-activating protein (Homo sapiens, UniProt P20292) does CC(C)Cc1ccc(C(C)c2nc3cc(C#N)ccc3n2Cc2ccccc2Cl)cc1 (stereo unspecified) have?
OUT: 7.59

* * *

# assayed_target: Arachidonate 5-lipoxygenase-activating protein (Homo sapiens)
# measurement_notes: Inhibition of FLAP in human neutrophils assessed as suppression of A23187-stimulated 5-LO product formation using arachidonic acid as substrate measured as residual activity at 1 uM preincubated for 15 mins followed by A23187/arachidonic acid addition after 10 mins RP-HPLC/UV analysis relative to control
Activity strictly less than 60% = Yes. Otherwise No.

| compound | category |
| --- | --- |
| CC(C)Cc1ccc(C(C)c2nc3cc(OCc4ccccn4)ccc3n2Cc2ccccc2C(F)(F)F)cc1 (stereo not drawn) | Yes |
| CC(C)Cc1ccc(C(C)c2nc3cc(OCc4ccc(C(C)(C)C)cc4)ccc3n2Cc2ccccc2C(F)(F)F)cc1 (stereo not drawn) | No |
| Cc1cccc(COc2ccc3c(c2)nc(C(C)c2ccc(CC(C)C)cc2)n3Cc2ccccc2C(F)(F)F)c1 (stereo not drawn) | No |
| Cc1ccccc1COc1ccc2c(c1)nc(C(C)c1ccc(CC(C)C)cc1)n2Cc1ccccc1C(F)(F)F (stereo not drawn) | No |
| COc1ccc(COc2ccc3c(c2)nc(C(C)c2ccc(CC(C)C)cc2)n3Cc2ccccc2C(F)(F)F)cc1 (stereo not drawn) | No |

IN: Quick check: Activity of CC(C)Cc1ccc(C(C)c2nc3cc(OCc4ccc(C#N)cc4)ccc3n2Cc2ccccc2C(F)(F)F)cc1 (stereo not drawn) under 60%?
OUT: No

IN: Quick check: Activity of CCCCOc1ccc2c(c1)nc(C(C)c1ccc(CC(C)C)cc1)n2Cc1ccccc1C(F)(F)F (stereo not drawn) under 60%?
OUT: Yes

IN: Quick check: Activity of CC(C)Cc1ccc(C(C)c2nc3cc(C#N)ccc3n2Cc2ccccc2Cl)cc1 (stereo not drawn) under 60%?
OUT: Yes
